assay_name: Solubility experiment in different media (crystal form B of the Example 53 compound)
Format: physicochemical
condition: thermodynamic from solid, water, 37° C.
Text: The solubility of crystal form B of (S)-1′-(6-amino-5-((2-amino-3-chloropyridin-4-yl)thio)-3-fluoropyrazin-2-yl)-1,3-dihydrospiro[indene-2,4′-piperidin]-1-amine in media such as water, Simulated Gastric Fluid (SGF), Fasted State Simulated Intestinal Fluid (FaSSIF) and Fed State Simulated Intestinal Fluid (FeSSIF) was compared, so as to provide a basis for evaluating the druggability. […]
property_measured: solubility thermodynamic at 24 h (µg/mL)
Numbers only here, please. The scale is µg/mL.

Qu. Return the recorded solubility thermodynamic at 24 h value; entry: `Nc1nc(N2CCC3(CC2)Cc2ccccc2[C@H]3N)c(F)nc1Sc1ccnc(N)c1Cl`
Ans. 1
